// data source = ChEMBL document CHEMBL1201862

# System: IGROV-1
# PROCEDURE TEXT: NCI tumour cell line growth inhibition, 48 h
The source made the active and inactive calls. No stated cut-off is given here; in the data, active = GI50 up to about 1.1 µM and inactive = higher.
Permitted responses: active, inactive

# COMPOUND, GROUP LABEL
rows = [
    ("COc1cc2c(cc1OC(=O)c1cc3ccccc3[nH]1)N=C[C@@H]1CCCN1C2=O", "active"),
    ("C#CCn1c(I)cc2c(c1=O)COC(=O)[C@]2(O)CC", "inactive"),
    ("O=C(NCCCNCCN1C(=O)c2cccc3cc([N+](=O)[O-])cc(c23)C1=O)c1cc(-c2ccccc2)nc2ccccc12", "inactive"),
    ("CCN(CC)C1Oc2cc3c(cc2C(c2cc(OC)c(O)c(OC)c2)C1C)OCO3 (centres undefined)", "inactive"),
    ("COC(=O)C1=C(C)NC(C)=C([N+](=O)[O-])C1c1cccc(N=O)c1 (centres undefined)", "inactive"),
    ("COC(=O)/C=C1/OC(c2ccccc2)=C(Br)C1=O", "inactive"),
    ("COc1ccc2oc(C(=O)O)c3c2c1CCC3CCC(=O)O (centres undefined)", "inactive"),
    ("COC(=O)c1c2c(cc3c1CCC3)CCC2", "inactive"),
]

Please indicate how the test categorized O=C(O[C@H]1[C@@H](O)[C@H](n2cnc3c(Cl)ncnc32)O[C@@H]1COC(c1ccccc1)(c1ccccc1)c1ccccc1)c1ccccc1 .
inactive

Please indicate how the test categorized Cc1cc(S(=O)(=O)NC2=NNC(C)CN2)c(S)cc1Cl (centres undefined) .
inactive

Please indicate how the test categorized CCN(CC)CCCNc1nc(=O)[nH]c(C)c1C(=O)Nc1cccc2cc3ccccc3cc12 .
inactive

Please indicate how the test categorized CN(C)Cc1cc(/N=N/c2c(Cl)cccc2Cl)ccc1O .
inactive

Please indicate how the test categorized CC(=O)O[C@H]1CC[C@@]2(C)C(=CC[C@@H]3C2CC[C@]2(C)Nc4c(cnn4-c4ccccc4)CC32)C1 (some centres undefined) .
inactive
